Data provenance: patent US20240116985A1

Molecular target: beta-catenin/TCF4 engagement (Homo sapiens, UniProt P35222)
Construct: expressed in transfected cells; host or cells: HEK293
Sequence (P35222 whole entry): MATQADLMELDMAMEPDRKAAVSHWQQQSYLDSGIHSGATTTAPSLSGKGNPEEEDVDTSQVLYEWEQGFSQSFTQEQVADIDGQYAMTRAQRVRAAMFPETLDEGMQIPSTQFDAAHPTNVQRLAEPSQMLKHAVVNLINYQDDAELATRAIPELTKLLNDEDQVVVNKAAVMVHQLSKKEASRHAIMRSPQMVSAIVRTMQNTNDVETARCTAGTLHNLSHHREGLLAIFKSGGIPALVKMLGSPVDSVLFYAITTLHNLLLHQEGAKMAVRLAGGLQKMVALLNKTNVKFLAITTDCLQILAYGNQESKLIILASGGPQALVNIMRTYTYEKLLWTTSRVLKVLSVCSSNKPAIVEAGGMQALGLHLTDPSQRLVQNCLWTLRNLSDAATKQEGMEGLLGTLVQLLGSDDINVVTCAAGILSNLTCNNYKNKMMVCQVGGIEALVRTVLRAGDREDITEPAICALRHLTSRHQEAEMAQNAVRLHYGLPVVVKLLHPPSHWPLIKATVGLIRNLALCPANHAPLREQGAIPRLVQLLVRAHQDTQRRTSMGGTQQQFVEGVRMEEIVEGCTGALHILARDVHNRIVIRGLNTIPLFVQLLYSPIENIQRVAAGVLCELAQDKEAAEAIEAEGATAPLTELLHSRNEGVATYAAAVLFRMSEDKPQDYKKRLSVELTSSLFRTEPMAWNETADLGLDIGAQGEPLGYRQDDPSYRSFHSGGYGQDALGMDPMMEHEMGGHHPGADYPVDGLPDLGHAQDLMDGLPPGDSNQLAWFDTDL
Assay: Nano-BRET target engagement assay (B-cat-Halo & TCF4-Luc in HEK293 cells)
Type: cell-based
Details: absolute IC50; read-out: NanoBRET Abs IC50
Each entry below carries its recorded pIC50.
// scale note: pIC50 = -log10(conc_M); give the bare number

The value of pIC50 measured for the compound CC(=O)N1CCC[C@]12CC=CCCCC1(CCCC=CCCCOC(=O)N3CC[C@@](C(=O)N[C@@H](Cc4ccsc4)C(=O)N[C@@H](Cc4c[nH]c5ccccc45)C(=O)N[C@@H](CO)C(N)=O)(C3)NC(=O)[C@H](CC(C)C)NC(=O)[C@H](Cc3ccccc3)NC(=O)[C@H](C)NC(=O)[C@H](C)NC(=O)[C@H](CC(=O)O)NC(=O)[C@H](CC(=O)O)NC1=O)NC(=O)[C@H](CC(C)(C)C)NC(=O)[C@H](CC(=O)O)NC2=O (stereo partly drawn) turned out to be 4.84

The value of pIC50 measured for the compound CC(=O)N1CCC[C@]12CC=CCCCC1(CCCC=CCCCOC(=O)N3CC[C@@](C(=O)N[C@@H](Cc4cccnc4)C(=O)N[C@@H](Cc4csc5ccccc45)C(=O)N[C@@H](CCC(N)=O)C(N)=O)(C3)NC(=O)[C@H](CC(C)C)NC(=O)[C@H](Cc3ccccc3)NC(=O)[C@H](C)NC(=O)[C@H](C)NC(=O)[C@H](CN(CC(=O)O)CC(F)(F)F)NC(=O)[C@H](CC(=O)O)NC1=O)NC(=O)[C@H](CC(C)(C)C)NC(=O)[C@H](CC(=O)O)NC2=O (stereo partly drawn) turned out to be 4.61

The value of pIC50 measured for the compound CC(=O)N1CCC[C@]12CC=CCCCC1(CCCC=CCCCOC(=O)N3CC[C@@](C(=O)N[C@@H](Cc4ccccc4Cl)C(=O)N[C@@H](Cc4csc5ccccc45)C(=O)N[C@H](C(N)=O)[C@@H](C)O)(C3)NC(=O)[C@H](CC(C)C)NC(=O)[C@H](Cc3ccccc3)NC(=O)[C@H](C)NC(=O)[C@H](C)NC(=O)[C@H](CC(=O)O)NC(=O)[C@H](CC(=O)O)NC1=O)NC(=O)[C@H](Cc1ccccc1)NC(=O)[C@H](CC(=O)O)NC2=O (stereo partly drawn) turned out to be 4.51

The value of pIC50 measured for the compound CC(=O)N1CCC[C@]12CC=CCCCC1(CCCC=CCCCOC(=O)N3CC[C@@](C(=O)N[C@@H](Cc4ccsc4)C(=O)N[C@@H](Cc4csc5ccccc45)C(=O)N[C@@H](CCC(N)=O)C(N)=O)(C3)NC(=O)[C@H](CC(C)C)NC(=O)[C@H](Cc3ccccc3)NC(=O)[C@H](C)NC(=O)[C@H](C)NC(=O)[C@H](Cc3ccc(C(=O)O)cc3)NC(=O)[C@H](CC(=O)O)NC1=O)NC(=O)[C@H](CC(C)(C)C)NC(=O)[C@H](CC(=O)O)NC2=O (stereo partly drawn) turned out to be 5.12

The value of pIC50 measured for the compound CC(=O)N1CCC[C@]12CC=CCCCC1(CCCC=CCCCOC(=O)N3CC[C@@](C(=O)N[C@@H](Cc4ccccc4Cl)C(=O)N[C@@H](Cc4csc5ccccc45)C(=O)N[C@H](CO)[C@@H](C)O)(C3)NC(=O)[C@H]([C@@H](C)O)NC(=O)[C@H](Cc3ccccc3)NC(=O)[C@H](C)NC(=O)[C@H](C)NC(=O)[C@H]([C@@H](C)O)NC(=O)[C@H](CC(=O)O)NC1=O)NC(=O)[C@H](CC(C)(C)C)NC(=O)[C@H](CC(=O)O)NC2=O (stereo partly drawn) turned out to be 4.54
